Experiment: Absorbance and fluorescence maximum wavelengths and quantum yields of the CyNA library
Format: physicochemical
Conditions: CyNA library
Procedure: Since the k values of the different CyNA compounds indicated some dependency on the chemical structure of the amine, the CyNA scaffold was derivatized with a broad range of primary amines (FIGS. 4A-4C). The fluorescence properties of the 80-member CyNA library were measured. The absorption maximum wavelengths ranged from 802 nm to 806 nm, emission maximum wavelengths ranged from 817 nm to 823 nm, and the average quantum yield was approximately 0.10 (Table 2). […]
Exercise: for every item that follows, state its recorded λem, fluorescence maximum wavelength.
The reply should contain only the number, in nm.

INPUT: Look at this compound and give its reported λem, fluorescence maximum wavelength. CCCCCN(C(C)=O)C1=C(/C=C/C2=[N+](CCC)c3ccccc3C2(C)C)CCC/C1=C\C=C1\N(CCC)c2ccccc2C1(C)C
OUTPUT: 820

INPUT: Look at this compound and give its reported λem, fluorescence maximum wavelength. CCCN1/C(=C/C=C2\CCCC(/C=C/C3=[N+](CCC)c4ccccc4C3(C)C)=C2N(Cc2ccco2)C(C)=O)C(C)(C)c2ccccc21
OUTPUT: 821

INPUT: Look at this compound and give its reported λem, fluorescence maximum wavelength. CCCN1/C(=C/C=C2\CCCC(/C=C/C3=[N+](CCC)c4ccccc4C3(C)C)=C2N(CCc2ccccc2F)C(C)=O)C(C)(C)c2ccccc21
OUTPUT: 819

INPUT: Look at this compound and give its reported λem, fluorescence maximum wavelength. CCCN1/C(=C/C=C2\CCCC(/C=C/C3=[N+](CCC)c4ccccc4C3(C)C)=C2N(CCc2ccccc2Cl)C(C)=O)C(C)(C)c2ccccc21
OUTPUT: 817

INPUT: Look at this compound and give its reported λem, fluorescence maximum wavelength. CCCN1/C(=C/C=C2\CCCC(/C=C/C3=[N+](CCC)c4ccccc4C3(C)C)=C2N(Cc2ccccc2C)C(C)=O)C(C)(C)c2ccccc21
OUTPUT: 822

INPUT: Look at this compound and give its reported λem, fluorescence maximum wavelength. CCCN1/C(=C/C=C2\CCCC(/C=C/C3=[N+](CCC)c4ccccc4C3(C)C)=C2N(CCc2ccc(C)cc2)C(C)=O)C(C)(C)c2ccccc21.[I-]
OUTPUT: 821

INPUT: Look at this compound and give its reported λem, fluorescence maximum wavelength. CCCN1/C(=C/C=C2\CCCC(/C=C/C3=[N+](CCC)c4ccccc4C3(C)C)=C2N(Cc2cccc(F)c2F)C(C)=O)C(C)(C)c2ccccc21
OUTPUT: 818

---

Exercise: for every item that follows, state its recorded F/Fo, fluorescent intensity at 8 hours vs 0 hours.
Assay: Primary screening of photostability of the CyNA library (time-course fluorescence, 8 h)
Assay type: physicochemical
Design: unit: %
Conditions: 10 μM in HEPES 100 mM pH 7.4, 2% DMSO
Protocol: As a primary evaluation of photo stability, the decrease in fluorescence intensity of the 80 CyNA compounds was measured (see Table 2). The average decrease in fluorescence intensity after 8 hours of irradiation by a xenon lamp was approximately 18%. […] 10-μM CyNA solutions in 100 mM HEPES buffer (pH 7.4) containing 2% DMSO were placed in a 96-well black plate, and fluorescence intensity measurements were recorded every 10 minutes for a total period of 8 hours (excitation-emission: 790-820 nm). […]
Reply: number alone, nothing else.

INPUT: Look at this molecule and give its reported F/Fo, fluorescent intensity at 8 hours vs 0 hours. CCCN1/C(=C/C=C2\CCCC(/C=C/C3=[N+](CCC)c4ccccc4C3(C)C)=C2N(Cc2cccc(OC)c2OC)C(C)=O)C(C)(C)c2ccccc21
OUTPUT: 100

INPUT: Look at this molecule and give its reported F/Fo, fluorescent intensity at 8 hours vs 0 hours. CCCN1/C(=C/C=C2\CCCC(/C=C/C3=[N+](CCC)c4ccccc4C3(C)C)=C2N(CCCN2CCCC2=O)C(C)=O)C(C)(C)c2ccccc21
OUTPUT: 90

INPUT: Look at this molecule and give its reported F/Fo, fluorescent intensity at 8 hours vs 0 hours. CCCN1/C(=C/C=C2\CCCC(/C=C/C3=[N+](CCC)c4ccccc4C3(C)C)=C2N(Cc2cccc3ccccc23)C(C)=O)C(C)(C)c2ccccc21
OUTPUT: 74

INPUT: Look at this molecule and give its reported F/Fo, fluorescent intensity at 8 hours vs 0 hours. CCCCC(CC)CN(C(C)=O)C1=C(/C=C/C2=[N+](CCC)c3ccccc3C2(C)C)CCC/C1=C\C=C1\N(CCC)c2ccccc2C1(C)C (stereo not drawn)
OUTPUT: 80

INPUT: Look at this molecule and give its reported F/Fo, fluorescent intensity at 8 hours vs 0 hours. CCCN1/C(=C/C=C2\CCCC(/C=C/C3=[N+](CCC)c4ccccc4C3(C)C)=C2N(Cc2ccc(Cl)c(Cl)c2)C(C)=O)C(C)(C)c2ccccc21
OUTPUT: 96

INPUT: Look at this molecule and give its reported F/Fo, fluorescent intensity at 8 hours vs 0 hours. CCCN1/C(=C/C=C2\CCCC(/C=C/C3=[N+](CCC)c4ccccc4C3(C)C)=C2N(Cc2ccc(F)cc2F)C(C)=O)C(C)(C)c2ccccc21
OUTPUT: 95
